assay: Determination of maximum tolerated dose (MTD), highest oral dose without hypercalcemia (serum calcium); format: in vivo; conditions: mouse, in vivo, po; eight week-old female C57BL/6 mice, p.o. daily for four days in miglyol; highest dose without hypercalcemia (serum calcium >10.7 mg/dl) on day five; read-out: MTD (mice)
measurement_type: MTD at 4 days (µg/kg)
Report the value in µg/kg with no unit label.

What the record says about [2H]C([2H])([2H])C(O)(CCC[C@@](C)(CC#CC(O)(C(F)(F)F)C(F)(F)F)[C@H]1CCC2/C(=C/C=C3/C[C@@H](O)C[C@H](F)C3=C)CCC[C@@]21C)C([2H])([2H])[2H] (some centres unmarked) [Compound 24] : MTD at 4 days is 10

Notebook: C=C1/C(=C\C=C2/CCC[C@@]3(C)C2CC[C@@H]3[C@](C)(C/C=C\C(O)(C(F)(F)F)C(F)(F)F)CCCC(C)(C)O)CC(O)C[C@@H]1F (some centres unmarked) [Compound 14] , MTD at 4 days read as 100

// field: MTD at 4 days; key: [2H]C([2H])([2H])C(O)(CCCC(C)(C/C=C\C(O)(C(F)(F)F)C(F)(F)F)[C@H]1CCC2/C(=C/C=C3C[C@@H](O)C[C@H](O)C3)CCC[C@@]21C)C([2H])([2H])[2H] (some centres unmarked) [Compound 17] ; value = 0.3

Record summary for C=C1/C(=C\C=C2/CCC[C@@]3(C)C2CC[C@@H]3[C@](C)(C/C=C\C(O)(C(F)(F)F)C(F)(F)F)CCCC(C)(C)O)CC(O)C[C@@H]1O (some centres unmarked) [Compound 5] : reported MTD at 4 days = 0.3

compound [2H]C([2H])([2H])C(O)(CCC[C@](C)(C/C=C\C(O)(C(F)(F)F)C(F)(F)F)[C@H]1CCC2/C(=C/C=C3/C[C@@H](O)C[C@H](O)C3=C)CCC[C@@]21C)C([2H])([2H])[2H] (some centres unmarked) [Compound 25] , MTD at 4 days observed: 3

CC(C)(O)CCC[C@@](C)(C/C=C\C(O)(C(F)(F)F)C(F)(F)F)[C@H]1CCC2/C(=C/C=C3/CC(O)C[C@H](O)C3)CCC[C@@]21C (some centres unmarked) [Compound 11] yielded MTD at 4 days of 3

The reported value for C=C1/C(=C\C=C2/CCC[C@@]3(C)C2CC[C@@H]3C(C)(CCCC(C)(C)O)CCCC(C)(C)O)CC(O)C[C@@H]1O (some centres unmarked) [Compound 1] in terms of MTD at 4 days is 3

// MTD at 4 days lookup, compound = [2H]C([2H])([2H])C(O)(CCC[C@](C)(C/C=C/C(O)(C(F)(F)F)C(F)(F)F)[C@H]1CCC2/C(=C/C=C3C[C@@H](O)C[C@H](O)C3)CCC[C@@]21C)C([2H])([2H])[2H] (some centres unmarked) [Compound 29] , result: 0.1

Note to self: MTD at 4 days recorded for [2H]C([2H])([2H])C(O)(CCCC(C)(CC#CC(O)(C(F)(F)F)C(F)(F)F)[C@H]1CCC2/C(=C/C=C3C[C@@H](O)C[C@H](O)C3)CCC[C@@]21C)C([2H])([2H])[2H] (some centres unmarked) [Compound 23] was 1

MTD at 4 days for C=C1/C(=C\C=C2/CCC[C@@]3(C)C2CC[C@@H]3[C@](C)(C/C=C/C(O)(C(F)(F)F)C(F)(F)F)CCCC(C)(C)O)CC(O)C[C@@H]1F (some centres unmarked) [Compound 15] is 10

---

Please go through the items and note down their MTD at 4 days.
assay: Determination of maximum tolerated dose (MTD), highest oral dose without hypercalcemia (serum calcium); format: in vivo; settings: mouse, in vivo, po; eight week-old female C57BL/6 mice, p.o. daily for four days in miglyol; highest dose without hypercalcemia (serum calcium >10.7 mg/dl) on day five; read-out: MTD (mice)
# number only, unit µg/kg dropped from output

// MTD at 4 days lookup, compound = [2H]C([2H])([2H])C(O)(CCC[C@](C)(C/C=C\C(O)(C(F)(F)F)C(F)(F)F)[C@H]1CCC2/C(=C/C=C3C[C@@H](O)C[C@H](O)C3)CCC[C@@]21C)C([2H])([2H])[2H] (some centres unmarked) [Compound 26] , result: 0.3

Sample C=C1/C(=C\C=C2/CCC[C@@]3(C)C2CC[C@@H]3[C@@](C)(C/C=C/C(O)(C(F)(F)F)C(F)(F)F)CCCC(C)(C)O)C[C@@H](O)C[C@@H]1O (some centres unmarked) [Compound 9] ; MTD at 4 days observed: 0.1

Data point: C=C1/C(=C\C=C2/CCC[C@@]3(C)C2CC[C@@H]3[C@](C)(CC#CC(O)(C(F)(F)F)C(F)(F)F)CCCC(C)(C)O)CC(O)C[C@@H]1O (some centres unmarked) [Compound 4] ; MTD at 4 days = 0.3

Data point: CC(C)(O)CCC[C@@](C)(CC#CC(O)(C(F)(F)F)C(F)(F)F)[C@H]1CCC2/C(=C/C=C3/CC(O)C[C@H](O)C3)CCC[C@@]21C (some centres unmarked) [Compound 10] ; MTD at 4 days = 0.3

The reported MTD at 4 days of the compound C=C1/C(=C\C=C2/CCC[C@@]3(C)C2CC[C@@H]3[C@](C)(CC#CC(O)(C(F)(F)F)C(F)(F)F)CCCC(C)(C)O)CC(O)C[C@@H]1F (some centres unmarked) [Compound 13] was 100

---

Give measured MTD at 4 days for each item. Keep answers brief.
test: Determination of maximum tolerated dose (MTD), highest oral dose without hypercalcemia (serum calcium); assay type: in vivo; conditions: mouse, in vivo, po; eight week-old female C57BL/6 mice, p.o. daily for four days in miglyol; highest dose without hypercalcemia (serum calcium >10.7 mg/dl) on day five; read-out: MTD (mice)
Please respond with the number in µg/kg and leave the unit unwritten.

# MTD at 4 days (molecule: [2H]C([2H])([2H])C(O)(CCCC(C)(C/C=C/C(O)(C(F)(F)F)C(F)(F)F)[C@H]1CCC2/C(=C/C=C3C[C@@H](O)C[C@H](O)C3)CCC[C@@]21C)C([2H])([2H])[2H] (stereo partly drawn) ) is 0.1

[2H]C([2H])([2H])C(O)(CCC[C@](C)(CC#CC(O)(C(F)(F)F)C(F)(F)F)[C@H]1CCC2/C(=C/C=C3/C[C@@H](O)C[C@H](O)C3=C)CCC[C@@]21C)C([2H])([2H])[2H] (stereo partly drawn) has a reported MTD at 4 days of 0.3

Lab book: MTD at 4 days of C=C1/C(=C\C=C2/CCC[C@@]3(C)C2CC[C@@H]3[C@@](C)(C/C=C\C(O)(C(F)(F)F)C(F)(F)F)CCCC(C)(C)O)C[C@@H](O)C[C@@H]1O (stereo partly drawn) noted as 0.3

The molecule identified as [2H]C([2H])([2H])C(O)(CCCC(C)(C/C=C\C(O)(C(F)(F)F)C(F)(F)F)[C@H]1CCC2/C(=C/C=C3/C[C@@H](O)C[C@H](F)C3=C)CCC[C@@]21C)C([2H])([2H])[2H] (stereo partly drawn) registered its MTD at 4 days at 100

// sample [2H]C([2H])([2H])C(O)(CCC[C@@](C)(C/C=C\C(O)(C(F)(F)F)C(F)(F)F)[C@H]1CCC2/C(=C/C=C3/C[C@@H](O)C[C@H](O)C3=C)CCC[C@@]21C)C([2H])([2H])[2H] (stereo partly drawn) , its MTD at 4 days was 0.3

The value of MTD at 4 days measured for the molecule [2H]C([2H])([2H])C(O)(CCCC(C)(CC#CC(O)(C(F)(F)F)C(F)(F)F)[C@H]1CCC2/C(=C/C=C3/C[C@@H](O)C[C@H](O)C3=C)CCC[C@@]21C)C([2H])([2H])[2H] (stereo partly drawn) turned out to be 0.3

---

test: Determination of maximum tolerated dose (MTD), highest oral dose without hypercalcemia (serum calcium); assay type: in vivo; details: female, C57BL/6, mouse, in vivo, po
measurement_type: MTD at 4 days

GET /value?item= C=C1/C(=C\C=C2/CCC[C@@]3(C)C2CC[C@@H]3C(C)(CCCC(C)(C)O)CCCC(C)(C)O)CC(O)C[C@@H]1F (stereo partly shown) &field=MTD at 4 days returns > 0.3 mg/kg

---

assay: Determination of maximum tolerated dose (MTD), highest oral dose without hypercalcemia (serum calcium); format: in vivo; conditions: mouse, in vivo, po; eight week-old female C57BL/6 mice, p.o. daily for four days in miglyol; highest dose without hypercalcemia (serum calcium >10.7 mg/dl) on day five; read-out: MTD (mice)
measurement_type: MTD at 4 days (µg/kg)
// return numeric value only (unit: µg/kg, not printed)

Recorded result, [2H]C([2H])([2H])C(O)(CCC[C@](C)(C/C=C/C(O)(C(F)(F)F)C(F)(F)F)[C@H]1CCC2/C(=C/C=C3/C[C@@H](O)C[C@H](O)C3=C)CCC[C@@]21C)C([2H])([2H])[2H] (stereo partly drawn) , MTD at 4 days: 0.3

// [2H]C([2H])([2H])C(O)(CCC[C@](C)(CC#CC(O)(C(F)(F)F)C(F)(F)F)[C@H]1CCC2/C(=C/C=C3C[C@@H](O)C[C@H](O)C3)CCC[C@@]21C)C([2H])([2H])[2H] (stereo partly drawn) : MTD at 4 days value = 0.3

The molecule listed as [2H]C([2H])([2H])C(O)(CCCC(C)(C/C=C/C(O)(C(F)(F)F)C(F)(F)F)[C@H]1CCC2/C(=C/C=C3/C[C@@H](O)C[C@H](O)C3=C)CCC[C@@]21C)C([2H])([2H])[2H] (stereo partly drawn) shows MTD at 4 days equal to 0.1

Measured values drawn from patent US20090099140A1 for this set.
